Entries and their koff values follow.
MEASUREMENT_TARGET: T1, native human ApoC3 (human, UniProt P02656 21-99)
T1 construct: also called nhuApoC3; native huApoC3
T1 sequence (P02656 21-99): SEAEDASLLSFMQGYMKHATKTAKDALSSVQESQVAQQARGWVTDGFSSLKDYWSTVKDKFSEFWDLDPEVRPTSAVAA
TEST_DETAILS: SPR, ApoC3 over captured IgG1, pH 5.5
VALUE_TYPE: koff

BINDER	RESULT
mAb6 (antibody, IgG1, V domains shown, Produced as full length IgG1 (kappa) in ExpiCHO-S cells; also called humanized anti-ApoC3 antibody mAb6) VH: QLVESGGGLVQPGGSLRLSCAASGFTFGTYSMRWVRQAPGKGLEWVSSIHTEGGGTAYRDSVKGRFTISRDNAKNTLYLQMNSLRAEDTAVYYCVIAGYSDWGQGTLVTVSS VL: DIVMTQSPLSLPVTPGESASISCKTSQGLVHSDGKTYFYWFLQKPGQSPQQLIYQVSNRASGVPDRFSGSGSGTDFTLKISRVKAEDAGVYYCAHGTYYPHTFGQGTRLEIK	0.0802 s⁻¹
mAb5 (antibody, IgG1, V domains shown, Produced as full length IgG1 (kappa) in ExpiCHO-S cells; also called humanized anti-ApoC3 antibody mAb5) VH: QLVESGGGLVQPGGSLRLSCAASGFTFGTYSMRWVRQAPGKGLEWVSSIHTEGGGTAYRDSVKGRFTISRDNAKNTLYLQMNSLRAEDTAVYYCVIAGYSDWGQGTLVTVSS VL: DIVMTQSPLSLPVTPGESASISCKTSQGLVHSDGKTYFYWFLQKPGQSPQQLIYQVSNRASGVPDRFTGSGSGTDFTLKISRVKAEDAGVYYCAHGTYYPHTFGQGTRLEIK	0.0376 s⁻¹

Data provenance: patent US20200239555A1
